Each entry below lists one item and its recorded TGI value.
System: OVCAR-4 ovarian
Test: NCI tumour cell line growth inhibition, 48 h
Return type: number; implicit unit µM.

Reference set, count: 6
INSERT INTO assay_data (compound, system_name, unit_info, result_number) VALUES
  ('CCOC(=O)c1[nH]c(CN(C)Cc2[nH]c(C(=O)OCC)c(C)c2C(=O)OCc2ccccc2)c(C(=O)OCc2ccccc2)c1C', 'OVCAR-4 ovarian', 'µM', 32.1),
  ('CC(C)(CC#N)c1cc(CC(C)(C)c2cc(CC(C)(C)c3cc(C(C)(C)C4(C)OCCO4)no3)no2)no1', 'OVCAR-4 ovarian', 'µM', 91),
  ('CCN(CC)CCOc1ccc2c(c1)C(=O)c1cc(OCCN(CC)CC)ccc1-2', 'OVCAR-4 ovarian', 'µM', 38.7),
  ('C#C[C@]1(O)CC[C@H]2[C@@H]3CCC4=C/C(=N\OCCN(CC)CC)CC[C@]4(C)[C@H]3CC[C@@]21C', 'OVCAR-4 ovarian', 'µM', 50.4),
  ('Cc1cc(=O)oc2c(C)c3oc(CBr)c(Br)c3cc12', 'OVCAR-4 ovarian', 'µM', 88.1),
  ('Nc1ccc(Oc2ccc(C34CC5CC(C3)CC(c3ccc(Oc6ccc(N)cc6)cc3)(C5)C4)cc2)cc1', 'OVCAR-4 ovarian', 'µM', 51.2);

Given item CC(=O)OC1CCC2(C)C(=CCC3C4CCC5(OC6CC(C)CN(C(C)=O)C6C5C)C(C)=C4C(=O)C32)C1 (centres undefined) , the value recorded as its TGI is 61.4

Entry `C[S+](C)CC(=O)c1ccc2c(c1)Sc1ccccc1O2` — recorded TGI = 15.4

###

System: A498 renal
Test: NCI tumour cell line growth inhibition, 48 h
Collected TGI values appear next to each entry.

Completed entries (count: 4):
INSERT INTO assay_data (compound, system_name, assay_endpoint, result) VALUES
  ('O[C@H]1[C@H]2[C@H](O)C[C@H](CCOCc3ccccc3)CN2C[C@H]1O', 'A498 renal', 'TGI', '> 100 µM'),
  ('CCc1cccc(CC)c1NC(=O)C1=C(C)NC(C)=C(C(=O)Nc2c(CC)cccc2CC)C1c1ccc2c(c1)OCO2', 'A498 renal', 'TGI', '38.9 µM'),
  ('CC1(C)CCC[C@@]2(C)C1C(=O)[C@@H]1O[C@]1(C)[C@@H]2CO (stereo not given in full)', 'A498 renal', 'TGI', '> 100 µM'),
  ('Cc1nc2ncn3c(c-2c1Cc1ccccc1)NC=C(O)N3', 'A498 renal', 'TGI', '> 100 µM');

Here `O=C(O)/C(=C\c1ccccc1Cl)S(=O)(=O)c1ccccc1` was tested on A498 renal, and its TGI came to > 100 µM

###

Listed compounds paired with reported TGI
System: SF-268 CNS
Test: NCI tumour cell line growth inhibition, 48 h

// field: TGI; key: `COC(=O)C[C@H](COCc1ccccc1)NC(=O)C[C@H](COCc1ccccc1)NC(=O)OC(C)(C)C` ; value = 40.5 µM

Notebook: `CCOP(=O)(OCC)[C@]12C[C@@H](C)C=C[C@H]1COC2=O` , TGI read as > 100 µM

###

Test system: HT29 colon
Test: NCI tumour cell line growth inhibition, 48 h; in the data active means GI50 below about 0.43 µM; inactive means the rest
Reply using exactly one outcome from active, inactive

Past entries and their recorded results:
INSERT INTO results (compound, category) VALUES
  ('CCCCCCCCCCCCCC(=O)C(C)N (centres undefined)', 'inactive'),
  ('C1=C(c2ccccc2)C(c2ccc(OCCN3CCCCC3)cc2)Oc2ccccc21 (centres undefined)', 'inactive'),
  ('Cc1cccc2c1O/C(=C\c1ccc([N+](=O)[O-])o1)C2=O', 'active'),
  ('C(=C\c1nccc2c1[nH]c1ccccc12)/c1ccccc1', 'inactive'),
  ('C[C@@H](Oc1ccc2[nH]nc(/C=C/c3cnn(CCO)c3)c2c1)c1c(Cl)cncc1Cl', 'active');

Write down the call the test reported for this compound. Item: `COc1ccc(/C=C/C(=O)c2cc3c(N)c(C(=O)Nc4ccccc4C)sc3nc2C)cc1`
inactive
